Biological target: T1, human VEGF121 (human, UniProt P15692)
T1 chain: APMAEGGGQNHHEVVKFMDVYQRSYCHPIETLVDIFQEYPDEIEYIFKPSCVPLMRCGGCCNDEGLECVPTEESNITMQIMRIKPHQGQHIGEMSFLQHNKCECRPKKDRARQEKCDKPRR
Assay: SPR, pH 5
parameter.measured: Kd

- binder: "509-maxII (antibody, V domains shown) VH: EVQLVESGGGLVQPGGSLRLSCTASGFSLSSYYMSWVRQAPGKGLEWVGILDYVGDTDYASWAKGRFTISKDASKNTVYLQMNSLRAEDTAVYYCARTDDSRGWGLNIWGQGTLVTVSS VL: EIVMTQSPSTLSASVGDRVIITCQASQNIRIWLSWYQQKPGKAPKLLIYKASTLESGVPSRFSGSGSGTEFTLTISSLQPDDFATYYCQNNAHYSTNGGTFGQGTKLTVLG"
  parameter.measured: "Kd"
  result: "1.37 nM"
- binder: "578-max (antibody, V domains shown) VH: EVQLVESGGGLVQPGGSLRLSCTASGFSLTDYYYMTWVRQAPGKGLEWVGFIDPDDDPYYATWAKGRFTISRDTSKNTVYLQMNSLRAEDTAVYYCAGGDHNSGWGLDIWGQGTLVTVSS VL: EIVMTQSPSTLSASVGDRVIITCQASEIIHSWLAWYQQKPGKAPKLLIYLASTLASGVPSRFSGSGSGTQFTLTISSLQPDDFATYYCQNVYLASTNGANFGQGTKLTVLG"
  parameter.measured: "Kd"
  result: "0.95 nM"
- binder: "509-min (antibody, V domains shown) VH: EVQLVESGGGLVQPGGSLRLSCAASGFSLSSYYMCWVRQAPGKGLEWVSCLDYVGDTDYASWAKGRFTISRDNSKNTLYLQMNSLRAEDTAVYYCAKTDDSRGWGLNIWGQGTLVTVSS VL: EIVMTQSPSTLSASVGDRVIITCQASQNIRIWLSWYQQKPGKAPKLLIYKASTLESGVPSRFSGSGSGAEFTLTISSLQPDDFATYYCQNNAHYSTNGGTFGQGTKLTVLG"
  parameter.measured: "Kd"
  result: "1.28 nM"
- binder: "511-min (antibody, V domains shown) VH: EVQLVESGGGLVQPGGSLRLSCAASGFSLNTYYMNWVRQAPGKGLEWVSIIAPDDTTYYASWAKSRFTISRDNSKNTLYLQMNSLRAEDTAVYYCAKSGDTTAWGADIWGQGTLVTVSS VL: EIVMTQSPSTLSASVGDRVIITCQASQSINIWCSWYQQKPGKAPKLLIYRASTLASGVPSRFSGSGSGAEFTLTISSLQPDDFATYYCQANYAYSAGYGAAFGQGTKLTVLG"
  parameter.measured: "Kd"
  result: "1.24 nM"

The reported numbers originate from patent US10590193.
